Exercise: for every item that follows, state its recorded IC50.
Target Or System: enkephalinase A (Rattus norvegicus)
Sequence (P07861 1-750): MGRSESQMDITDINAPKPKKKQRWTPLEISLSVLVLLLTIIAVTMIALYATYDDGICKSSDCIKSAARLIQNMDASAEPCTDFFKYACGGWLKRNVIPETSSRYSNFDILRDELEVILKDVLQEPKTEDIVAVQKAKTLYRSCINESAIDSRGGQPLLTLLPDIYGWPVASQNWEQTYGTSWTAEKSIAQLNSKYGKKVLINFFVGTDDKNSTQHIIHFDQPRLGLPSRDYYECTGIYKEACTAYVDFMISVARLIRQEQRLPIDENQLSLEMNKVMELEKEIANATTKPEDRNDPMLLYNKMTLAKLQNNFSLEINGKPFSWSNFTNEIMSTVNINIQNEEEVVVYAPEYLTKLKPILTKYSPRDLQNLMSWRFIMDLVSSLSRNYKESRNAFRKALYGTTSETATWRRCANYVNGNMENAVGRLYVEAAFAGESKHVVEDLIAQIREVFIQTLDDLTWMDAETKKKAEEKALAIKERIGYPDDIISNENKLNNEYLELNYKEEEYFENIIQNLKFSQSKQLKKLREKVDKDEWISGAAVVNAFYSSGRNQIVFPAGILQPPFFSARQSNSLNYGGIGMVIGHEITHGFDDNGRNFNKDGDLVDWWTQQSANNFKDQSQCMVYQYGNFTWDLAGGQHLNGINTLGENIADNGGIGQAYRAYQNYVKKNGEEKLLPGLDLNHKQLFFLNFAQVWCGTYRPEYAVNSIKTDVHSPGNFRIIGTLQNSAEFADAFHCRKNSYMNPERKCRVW
Where a name gives a salt, the structure may show the parent alone.
One number for each entry, in µM.

# annotated cases, reported IC50 shown
{"columns": ["Molecule", "Result Units", "Reported"],
 "data": [
  ["CCOC(=O)CCNC(=O)[C@H](Cc1ccccc1)CP(=O)(O)O [S, -H, -CONH-, -(CH2)2-, -OC2H5, calcium salt]", "µM", 0.06],
  ["CCOC(=O)c1ccc(NC(=O)C(Cc2ccccc2)CP(=O)(O)O)cc1 (stereo not shown)", "µM", 0.063],
  ["O=C(O)CCNC(=O)C(Cc1ccc(C(F)(F)F)cc1)CP(=O)(O)O (racemic)", "µM", 0.06]
]}

Now for the molecule whose IC50 we want.
GET /values?readout=IC50&item= O=C(O)CCNC(=O)[C@@H](Cc1ccccc1)CP(=O)(O)O [R, -H, -CONH-, -(CH2)2-, -OH, calcium salt]
0.6
